- Experimental Target: UniProt P35372
- Sequence (P35372 whole entry): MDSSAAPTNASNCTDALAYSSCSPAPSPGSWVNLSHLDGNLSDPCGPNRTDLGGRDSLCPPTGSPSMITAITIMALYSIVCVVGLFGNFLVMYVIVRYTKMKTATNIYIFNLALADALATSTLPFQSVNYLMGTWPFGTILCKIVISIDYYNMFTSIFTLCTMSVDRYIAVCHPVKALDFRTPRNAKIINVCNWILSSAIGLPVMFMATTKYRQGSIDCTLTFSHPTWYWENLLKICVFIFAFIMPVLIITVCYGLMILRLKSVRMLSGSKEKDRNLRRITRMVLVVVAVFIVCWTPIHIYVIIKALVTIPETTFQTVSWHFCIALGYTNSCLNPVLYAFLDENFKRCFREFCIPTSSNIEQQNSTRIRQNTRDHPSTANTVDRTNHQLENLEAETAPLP
- Method Notes: […] activity against mu opioid receptor expressed in CHO cells assessed as stimulation [35S]GTPgammaS binding relative to DAMGO
- Type: functional, cell-based
- Parameters: concentration or dose not given beside the values
Measurement Kind: Activity (%)

INSERT INTO results (compound, measurement_kind, measurement_units, number) VALUES
  ('O=C(O[C@@]12CCC(=O)[C@@H]3Oc4c(O)ccc5c4[C@@]31CCN(CC1CC1)[C@@H]2C5)c1ccc2ccccc2c1', 'Activity', '%', 0),
  ('O=C(O[C@@]12CCC(=O)[C@@H]3Oc4c(O)ccc5c4[C@@]31CCN(CC1CC1)[C@@H]2C5)c1cccnc1', 'Activity', '%', 0),
  ('C[C@@H](O)[C@H](NC(=O)[C@H](NC(=O)[C@@H](NC(=O)[C@H](CCCNC(=N)N)NC(=O)C(Cc1c[nH]c2ccccc12)NC(=O)[C@@H](Cc1ccc(O)cc1)NC(=O)[C@H](CS)NC(=O)[C@H](N)Cc1ccccc1)[C@@H](C)O)C(C)(C)S)C(=O)O (stereo in doubt)', 'Activity', '%', 0),
  ('O=C(O[C@@]12CCC(=O)[C@@H]3Oc4c(O)ccc5c4[C@@]31CCN(CC1CC1)[C@@H]2C5)c1ccncc1', 'Activity', '%', 0),
  ('O=C(O[C@@]12CCC(=O)[C@@H]3Oc4c(O)ccc5c4[C@@]31CCN(CC1CC1)[C@@H]2C5)c1cnc2ccccc2c1', 'Activity', '%', 22),
  ('O=C(O[C@@]12CCC(=O)[C@@H]3Oc4c(O)ccc5c4[C@@]31CCN(CC1CC1)[C@@H]2C5)c1ccccn1', 'Activity', '%', 0),
  ('O=C(O[C@@]12CCC(=O)[C@@H]3Oc4c(O)ccc5c4[C@@]31CCN(CC1CC1)[C@@H]2C5)c1ccc2ccccc2n1', 'Activity', '%', 0),
  ('O=C(O[C@@]12CCC(=O)[C@@H]3Oc4c(O)ccc5c4[C@@]31CCN(CC1CC1)[C@@H]2C5)c1cc2ccccc2cn1', 'Activity', '%', 0),
  ('O=C(O[C@@]12CCC(=O)[C@@H]3Oc4c(O)ccc5c4[C@@]31CCN(CC1CC1)[C@@H]2C5)c1ccccc1', 'Activity', '%', 0),
  ('COC(=O)/C=C/C(=O)N[C@@H]1CC[C@@]2(O)[C@H]3Cc4ccc(O)c5c4[C@@]2(CCN3CC2CC2)[C@H]1O5', 'Activity', '%', 0);
